Origin of the recorded values: patent US20190330358A1

Reported values of KD Ratio for individual entries
# ASSAYED TARGET: T1, Glutathione S-transferase (GST)-tagged AITR (human, UniProt Q9Y5U5 26-139)
# T1 construct: also called GST-AITR antigen; GST-AITR analyte; not shown: Glutathione S-transferase (GST) tag
# T1 sequence (looked up): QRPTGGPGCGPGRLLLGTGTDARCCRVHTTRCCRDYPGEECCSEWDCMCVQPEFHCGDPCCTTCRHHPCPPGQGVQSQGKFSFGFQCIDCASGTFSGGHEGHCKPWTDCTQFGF
# ASSAY DETAILS: KD ratio against parental IRTCA-A, repeated from the SPR of Table 3
Value expressed in fold; do not type the unit.

Please review the entries below; each comes with its answer.
| BINDER | KD Ratio / fold |
| --- | --- |
| IRTCA-A1 (Clone L1E9) Fab (Fab, V domains shown) VH: QVQLVQSGTQVKMPGASVKVSCKASGYTFDDYGIGWVRQAPGQGLEWMGWISPYTHRTNSSPKLQDRVTMTTDTSTSTAYMELRSLRSDDTAVYYCARDGTYYDFWSGYFDNGAFDIWGQGTLVTVSS VL: QSVVTQPPSVSAAPGQKVTISCSGSTSNIGNNYVSWYQQLPGTAPKLLIYDNYKRPSGIPDRFSGSKSGTSATLGITGLRTGDEADYFCGSWESGSNAYKFGGGTKLTVL | 8.2 |
| IRTCA-A12 (Clone H2A10) Fab (Fab, V domains shown) VH: QVQLVQSGTQVKMPGASVKVSCKASGYTFDDYGIGWVRQAPGQGLEWMGWISPYTHRTNSSPKLQDRVTMTTDTSTSTAYMELRSLRSDDTAVYYCARDGTYYDFWSGYFDNATFDFWGQGTLVTVSS VL: QSVVTQPPSVSAAPGQKVTISCSGSTSNIGNNYVSWYQQLPGTAPKLLIYDNYKRPSGIPDRFSGSKSGTSATLGITGLRTGDEADYFCGTWDSSLNAWVFGGGTKLTVL | 27.6 |

// next entry
Report KD Ratio for IRTCA-A10 (Clone H1A10) Fab (Fab, V domains shown) VH: QVQLVQSGTQVKMPGASVKVSCKASGYTFDDYGIGWVRQAPGQGLEWMGWISPYTHRTNSSPKLQDRVTMTTDTSTSTAYMELRSLRSDDTAVYYCARDGTYYDFWSGYFDNAAFDSWGQGTLVTVSS VL: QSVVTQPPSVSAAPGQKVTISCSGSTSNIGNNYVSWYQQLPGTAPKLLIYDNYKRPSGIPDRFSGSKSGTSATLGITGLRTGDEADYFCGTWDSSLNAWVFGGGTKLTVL please.
8.4
